Species on record: Rattus norvegicus
Test: Open TG-GATES - Regimen: Single
Format: toxicity, organism-based, Sprague-Dawley
Design: regimen Single, gender Male, age 6 weeks
Conditions: in vivo, po, 0 mg/kg, 3 h, tissue Plasma, route gavage, dose level Control
Reported ALT values are given for each entry in this list.
Dear colleague, please return just the value in IU/L, with no unit written.

Solved cases (5 shown):
Brc1ccccc1 [BROMOBENZENE] : 46.2
CCCc1cc(=O)[nH]c(=S)[nH]1 [PROPYLTHIOURACIL] : 39.6
CC(C)NNC(=O)c1ccncc1 [IPRONIAZID] : 41.4
CCOc1ccc(NC(C)=O)cc1 [PHENACETIN] : 39.6
Nc1c2c(nc3ccccc13)CCCC2 [TACRINE] : 39.6

Moving on to the next molecule.
# input Given CN/C(=N/CCSCc1nc[nH]c1C)NC#N [CIMETIDINE] , state its recorded ALT.
# output 37.4

====

Reported BUN values are given for each entry in this list.
Organism: Rattus norvegicus
Test: Open TG-GATES - Regimen: Daily Repeat
Format: toxicity, organism-based, Sprague-Dawley
Parameters: regimen Daily Repeat, gender Male, age 6 weeks
Details: in vivo, po, 100 mg/kg, […], tissue Plasma, route gavage, dose level Low, time 14 day
Dear colleague, please return just the value in mg/dL, with no unit written.

CNC(=C[N+](=O)[O-])NCCSCc1ccc(CN(C)C)o1 : 16.4
CN/C(=N/CCSCc1nc[nH]c1C)NC#N : 17.6
O=C(OC[C@H]1O[C@@H](OC(=O)c2cc(O)c(O)c(OC(=O)c3cc(O)c(O)c(O)c3)c2)[C@H](OC(=O)c2cc(O)c(O)c(OC(=O)c3cc(O)c(O)c(O)c3)c2)[C@@H](OC(=O)c2cc(O)c(O)c(OC(=O)c3cc(O)c(O)c(O)c3)c2)[C@@H]1OC(=O)c1cc(O)c(O)c(OC(=O)c2cc(O)c(O)c(O)c2)c1)c1cc(O)c(O)c(OC(=O)c2cc(O)c(O)c(O)c2)c1 : 18.5

# input Given Cc1nnc2n1-c1ccc(Cl)cc1C(c1ccccc1Cl)=NC2 , state its recorded BUN.
# output 16.2

# input Given COC(=O)C1=C(C)NC(C)=C(C(=O)OC)C1c1ccccc1[N+](=O)[O-] , state its recorded BUN.
# output 17.6

====

Reported PL values are given for each entry in this list.
Species: Rattus norvegicus
Assay: Open TG-GATES - Regimen: Single
Assay type: toxicity, organism-based, Sprague-Dawley
Set-up: regimen Single, gender Male, age 6 weeks
Conditions: in vivo, po, 0 mg/kg, 9 h, tissue Plasma, route gavage, dose level Control
Dear colleague, please return just the value in mg/dL, with no unit written.

# input Given O=C(OC[C@H]1O[C@@H](OC(=O)c2cc(O)c(O)c(OC(=O)c3cc(O)c(O)c(O)c3)c2)[C@H](OC(=O)c2cc(O)c(O)c(OC(=O)c3cc(O)c(O)c(O)c3)c2)[C@@H](OC(=O)c2cc(O)c(O)c(OC(=O)c3cc(O)c(O)c(O)c3)c2)[C@@H]1OC(=O)c1cc(O)c(O)c(OC(=O)c2cc(O)c(O)c(O)c2)c1)c1cc(O)c(O)c(OC(=O)c2cc(O)c(O)c(O)c2)c1 [TANNIC ACID] , state its recorded PL.
# output 138.6
